Cited source for all entries: ChEMBL document CHEMBL5291721

Let's go through some AC50 measurements on Beta-2 adrenergic receptor (Homo sapiens, UniProt P07550) together.
Sequence (P07550 whole entry): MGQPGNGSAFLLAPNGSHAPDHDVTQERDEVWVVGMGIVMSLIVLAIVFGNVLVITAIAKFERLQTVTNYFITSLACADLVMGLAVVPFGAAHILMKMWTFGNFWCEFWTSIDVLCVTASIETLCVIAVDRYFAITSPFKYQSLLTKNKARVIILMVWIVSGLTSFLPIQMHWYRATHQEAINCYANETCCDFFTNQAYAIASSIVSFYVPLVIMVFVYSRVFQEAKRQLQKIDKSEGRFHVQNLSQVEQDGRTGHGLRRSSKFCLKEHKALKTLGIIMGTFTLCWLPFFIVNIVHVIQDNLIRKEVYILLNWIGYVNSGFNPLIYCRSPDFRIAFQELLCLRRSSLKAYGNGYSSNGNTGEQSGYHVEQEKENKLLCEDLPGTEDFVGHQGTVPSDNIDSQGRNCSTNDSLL

O=[N+]([O-])c1cn2c(n1)OC[C@@H](OCc1ccc(OC(F)(F)F)cc1)C2: > 10 µM
Cc1cccc(C(C)c2cnc[nH]2)c1C (configuration not stated): > 30 µM
CC[C@H]1[C@@H](O)[C@@H]2[C@H](CC[C@]3(C)[C@@H]([C@H](C)CCC(=O)O)CC[C@@H]23)[C@@]2(C)CC[C@@H](O)C[C@@H]12: > 30 µM
C[C@]12CCC(=O)C=C1CC[C@@H]1[C@@H]2[C@@H](O)C[C@@]2(C)[C@H]1CC[C@]2(O)C(=O)CO [HYDROCORTISONE]: > 10 µM
CCOc1ccc(Cc2cc([C@@H]3O[C@H](CO)[C@@H](O)[C@H](O)[C@H]3O)ccc2Cl)cc1: > 10 µM
NCC(CC(=O)O)c1ccc(Cl)cc1 (configuration not stated): > 10 µM

Alright, here's another compound for you.
Query: Requested read-out AC50, target or system Beta-2 adrenergic receptor (Homo sapiens, UniProt P07550), entry CC(=O)O[C@H]1C[C@@H]2CC[C@@H]3[C@H](CC[C@@]4(C)[C@H]3C[C@H]([N+]3(C)CCCCC3)[C@@H]4OC(C)=O)[C@@]2(C)C[C@@H]1N1CCCCC1; note: assay procedure not described here
Result: > 30 µM

----------
biological target: UniProt P21397; assay type: functional
Sequence (P21397 whole entry): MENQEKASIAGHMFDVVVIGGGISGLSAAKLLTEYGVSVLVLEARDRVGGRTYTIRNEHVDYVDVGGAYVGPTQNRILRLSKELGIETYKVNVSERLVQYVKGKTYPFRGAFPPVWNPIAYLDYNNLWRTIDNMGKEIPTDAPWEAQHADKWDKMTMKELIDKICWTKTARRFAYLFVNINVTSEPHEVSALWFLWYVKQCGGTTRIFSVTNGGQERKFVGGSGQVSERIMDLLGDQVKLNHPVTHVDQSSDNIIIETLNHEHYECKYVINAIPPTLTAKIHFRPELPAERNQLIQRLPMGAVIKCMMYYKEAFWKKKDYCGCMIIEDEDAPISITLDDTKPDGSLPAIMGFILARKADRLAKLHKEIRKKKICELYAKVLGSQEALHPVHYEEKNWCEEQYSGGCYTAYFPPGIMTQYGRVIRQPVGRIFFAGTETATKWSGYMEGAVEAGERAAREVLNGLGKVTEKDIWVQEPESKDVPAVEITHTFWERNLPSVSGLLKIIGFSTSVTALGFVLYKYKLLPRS
Reported AC50 values follow for various compounds

Below are worked cases with known answers.
OC(CNCC(O)C1CCc2cc(F)ccc2O1)C1CCc2cc(F)ccc2O1 (centres undefined): > 30 µM
Nc1nc(N)nc(-c2cc(Cl)ccc2Cl)n1: > 30 µM
CN1CCN(C2=Nc3ccccc3Sc3ccc(Cl)cc32)CC1: > 30 µM
CC(C)OC(=O)CCC/C=C\C[C@@H]1[C@@H](CC[C@@H](O)CCc2ccccc2)[C@H](O)C[C@@H]1O: > 30 µM
CN(C)/N=N/c1[nH]cnc1C(N)=O: > 10 µM

Query: GET /values?readout=AC50&item= Cc1ccc(S(=O)(=O)NC(=O)NN2CC3CCCC3C2)cc1 (centres undefined) [GLICLAZIDE]
Result: > 30 µM

Query: Okay, and COc1ccc(CC(C)(C)NC[C@H](O)c2cc(O)cc3c2OCC(=O)N3)cc1 ?
Result: > 30 µM

Query: Okay, and CC1(C)O[C@@H]2C[C@H]3[C@@H]4CCC5=CC(=O)C=C[C@]5(C)[C@H]4[C@@H](O)C[C@]3(C)[C@]2(C(=O)CO)O1 [DESONIDE] ?
Result: > 10 µM

Query: Okay, and CCOC(=O)OC(C)OC1=C(C(=O)Nc2ccccn2)N(C)S(=O)(=O)c2ccccc21 (centres undefined) ?
Result: > 30 µM

----------
Reported AC50 values follow for various compounds
molecular target: D(1A) dopamine receptor (Homo sapiens); format: functional, cell-based; note: assay procedure not described here
Sequence (P21728 whole entry): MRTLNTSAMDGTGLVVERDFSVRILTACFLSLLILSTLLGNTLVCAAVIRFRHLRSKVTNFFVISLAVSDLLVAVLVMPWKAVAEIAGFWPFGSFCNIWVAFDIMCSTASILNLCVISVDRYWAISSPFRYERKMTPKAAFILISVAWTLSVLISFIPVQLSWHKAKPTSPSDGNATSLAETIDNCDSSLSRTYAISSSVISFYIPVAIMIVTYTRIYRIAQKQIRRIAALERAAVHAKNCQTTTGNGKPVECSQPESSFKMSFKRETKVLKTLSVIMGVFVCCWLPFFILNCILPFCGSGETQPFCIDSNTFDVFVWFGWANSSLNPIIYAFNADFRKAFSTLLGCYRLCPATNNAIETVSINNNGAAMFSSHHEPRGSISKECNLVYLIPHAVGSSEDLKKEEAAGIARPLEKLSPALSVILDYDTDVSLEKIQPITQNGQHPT
Please reply with the bare figure in µM and do not write the unit itself.

CN1[C@@H]2CC[C@H]1C[C@@H](OC(c1ccccc1)c1ccccc1)C2 [BENZTROPINE]: 21
Cc1c(C(=O)NN2CCCCC2)nn(-c2ccc(Cl)cc2Cl)c1-c1ccc(Cl)cc1 [RIMONABANT]: 26
CN(C)CCC=C1c2ccccc2C(C)(C)c2ccccc21: 4.5

Alright, here's another compound for you.
Query: GET /values?readout=AC50&item= CN1CCC(=C2c3ccccc3CCc3sccc32)CC1 [PIZOTYLINE]
Result: 0.65

----------
Let's go through some AC50 measurements on Motilin receptor (Homo sapiens, UniProt O43193) together.
Sequence (O43193 whole entry): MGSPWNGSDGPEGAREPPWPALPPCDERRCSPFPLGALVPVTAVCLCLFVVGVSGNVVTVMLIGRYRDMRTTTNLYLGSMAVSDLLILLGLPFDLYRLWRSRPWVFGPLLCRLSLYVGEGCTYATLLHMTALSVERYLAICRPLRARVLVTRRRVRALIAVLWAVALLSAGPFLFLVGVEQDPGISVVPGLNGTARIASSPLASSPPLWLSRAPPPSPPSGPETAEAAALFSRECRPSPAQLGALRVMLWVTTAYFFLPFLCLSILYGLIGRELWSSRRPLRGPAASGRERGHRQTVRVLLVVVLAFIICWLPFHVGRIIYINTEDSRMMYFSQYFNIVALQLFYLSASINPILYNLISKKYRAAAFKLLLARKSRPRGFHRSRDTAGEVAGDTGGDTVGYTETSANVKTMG

Below are worked cases with known answers.
COc1ccc(CCN(C)CCCC(C#N)(c2cc(OC)c(OC)c(OC)c2)C(C)C)cc1OC (configuration not stated): > 30 µM
Nc1ccn([C@H]2CC[C@@H](CO)O2)c(=O)n1: > 10 µM

Query: GET /values?readout=AC50&item= COc1ccccc1N1CCN(CCCNc2cc(=O)n(C)c(=O)n2C)CC1
Result: > 30 µM

Query: Okay, and CC(C[N+](C)(C)C)OC(N)=O (configuration not stated) ?
Result: > 10 µM

----------
target: Mu-type opioid receptor (Homo sapiens); note: assay procedure not described here
Sequence (P35372 whole entry): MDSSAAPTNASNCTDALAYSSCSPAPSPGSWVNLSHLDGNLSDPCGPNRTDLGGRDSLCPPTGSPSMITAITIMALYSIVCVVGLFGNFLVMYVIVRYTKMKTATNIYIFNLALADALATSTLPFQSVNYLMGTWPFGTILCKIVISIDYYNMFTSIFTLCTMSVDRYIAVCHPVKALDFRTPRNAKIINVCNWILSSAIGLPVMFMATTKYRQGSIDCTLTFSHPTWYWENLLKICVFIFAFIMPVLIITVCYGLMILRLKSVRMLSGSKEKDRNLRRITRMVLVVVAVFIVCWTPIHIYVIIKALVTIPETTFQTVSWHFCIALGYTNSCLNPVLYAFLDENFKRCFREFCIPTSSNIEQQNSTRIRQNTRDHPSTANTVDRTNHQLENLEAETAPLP
Reported AC50 values follow for various molecules

Below are worked cases with known answers.
CCCN(CCC)C(=O)C(CCC(=O)O)NC(=O)c1ccccc1 (stereo not given) [PROGLUMIDE]: > 30 µM
Nc1ccn([C@H]2CC[C@@H](CO)O2)c(=O)n1 [ZALCITABINE]: > 30 µM
CN1C(=O)C(O)N=C(c2ccccc2)c2cc(Cl)ccc21 (stereo not given) [TEMAZEPAM]: > 30 µM
Cc1nnc2n1-c1ccc(Cl)cc1C(c1ccccc1Cl)=NC2 [TRIAZOLAM]: > 30 µM
C[C@H](CSC(=O)c1ccccc1)C(=O)N1C[C@@H](Sc2ccccc2)C[C@H]1C(=O)O [ZOFENOPRIL]: > 30 µM
CS(=O)(=O)c1ccc(C2=C(c3ccccc3)C(=O)OC2)cc1 [ROFECOXIB]: > 10 µM
CNS(=O)(=O)Cc1ccc2[nH]cc(CCN(C)C)c2c1: > 10 µM
CN(C)CCC(c1ccc(Cl)cc1)c1ccccn1 (stereo not given) [CHLORPHENIRAMINE]: > 10 µM
Cc1ccc(-c2cc(C(F)(F)F)nn2-c2ccc(S(N)(=O)=O)cc2)cc1 [CELECOXIB]: > 30 µM

Query: Requested read-out AC50, target or system Mu-type opioid receptor (Homo sapiens), entry COc1ccc(C(=O)Nc2ccccc2CCC2CCCCN2C)cc1 (stereo not given) [ENCAINIDE]; note: assay procedure not described here
Result: > 30 µM

----------
Reported AC50 values follow for various compounds
Target: UniProt:P25929
Sequence (P25929 whole entry): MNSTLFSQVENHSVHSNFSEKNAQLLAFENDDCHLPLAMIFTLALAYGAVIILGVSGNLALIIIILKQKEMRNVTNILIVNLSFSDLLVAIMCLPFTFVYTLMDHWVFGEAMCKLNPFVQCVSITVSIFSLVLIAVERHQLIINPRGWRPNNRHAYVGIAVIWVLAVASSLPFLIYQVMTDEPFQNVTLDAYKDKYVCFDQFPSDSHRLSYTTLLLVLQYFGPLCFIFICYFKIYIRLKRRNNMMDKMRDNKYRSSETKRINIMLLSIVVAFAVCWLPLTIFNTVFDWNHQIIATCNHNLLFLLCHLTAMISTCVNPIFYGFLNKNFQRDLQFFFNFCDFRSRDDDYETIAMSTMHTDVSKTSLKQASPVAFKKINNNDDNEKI

Below are worked cases with known answers.
COc1ccc(C(=O)Nc2ccccc2CCC2CCCCN2C)cc1 (centres undefined) [ENCAINIDE]: > 30 µM
C=CCC1(CC(C)C)C(=O)NC(=O)NC1=O [BUTALBITAL]: > 10 µM
CC(C)C[C@H]1C(=O)N2CCC[C@H]2[C@]2(O)O[C@](NC(=O)[C@@H]3C=C4c5cccc6[nH]c(Br)c(c56)C[C@H]4N(C)C3)(C(C)C)C(=O)N12 [BROMOCRIPTINE]: > 30 µM

Alright, here's another compound for you.
Query: Requested read-out AC50, target or system UniProt:P25929, entry COC(=O)C1=C(C)NC(C)=C(C(=O)OC2CCCN(Cc3ccccc3)C2)C1c1cccc([N+](=O)[O-])c1 (centres undefined) [BENIDIPINE]
Result: > 30 µM

----------
Let's go through some AC50 measurements on Gastrin/cholecystokinin type B receptor (Homo sapiens, UniProt P32239) together.
Sequence (P32239 whole entry): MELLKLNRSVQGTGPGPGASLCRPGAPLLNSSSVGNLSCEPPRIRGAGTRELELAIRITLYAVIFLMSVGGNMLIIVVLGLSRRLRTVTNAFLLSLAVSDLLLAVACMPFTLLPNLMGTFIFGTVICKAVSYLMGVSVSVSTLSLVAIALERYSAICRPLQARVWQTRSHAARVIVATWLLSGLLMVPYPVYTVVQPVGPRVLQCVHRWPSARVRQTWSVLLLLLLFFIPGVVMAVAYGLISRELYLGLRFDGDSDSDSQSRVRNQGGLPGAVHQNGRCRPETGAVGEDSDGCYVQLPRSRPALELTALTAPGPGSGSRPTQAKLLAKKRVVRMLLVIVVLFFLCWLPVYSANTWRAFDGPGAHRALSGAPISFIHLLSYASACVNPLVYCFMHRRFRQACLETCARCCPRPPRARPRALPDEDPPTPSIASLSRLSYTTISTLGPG

CC[C@H]1[C@@H](O)[C@@H]2[C@H](CC[C@]3(C)[C@@H]([C@H](C)CCC(=O)O)CC[C@@H]23)[C@@]2(C)CC[C@@H](O)C[C@@H]12: > 30 µM
CC(=O)OCC(=O)[C@@]12N=C(C)O[C@@H]1C[C@H]1[C@@H]3CCC4=CC(=O)C=C[C@]4(C)[C@H]3[C@@H](O)C[C@@]12C: > 30 µM
CCN(CC)C(=O)N[C@H]1C[C@@H]2c3cccc4[nH]cc(c34)C[C@H]2N(C)C1 [TERGURIDE]: > 30 µM
CC(C)(C)c1cc(C(C)(C)C)c(NC(=O)c2c[nH]c3ccccc3c2=O)cc1O: > 30 µM
Cc1ccc(-c2cc(C(F)(F)F)nn2-c2ccc(S(N)(=O)=O)cc2)cc1: > 10 µM
Cc1cn([C@H]2C[C@H](N=[N+]=[N-])[C@@H](CO)O2)c(=O)[nH]c1=O: > 30 µM
CN1C(C(=O)Nc2ccccn2)=C(O)c2sc(Cl)cc2S1(=O)=O: > 30 µM
O=[N+]([O-])c1cn2c(n1)OC[C@@H](OCc1ccc(OC(F)(F)F)cc1)C2: > 30 µM
CCC(C(=O)O)c1ccc(N2Cc3ccccc3C2=O)cc1 (configuration not stated): > 30 µM
C=CCc1ccccc1OCC(O)CNC(C)C (configuration not stated): > 30 µM

Query: GET /values?readout=AC50&item= O=[N+]([O-])O[C@@H]1CO[C@H]2[C@@H]1OC[C@@H]2O [ISOSORBIDE MONONITRATE]
Result: > 30 µM

Query: Okay, and Cn1nnc2c(C(N)=O)ncn2c1=O [TEMOZOLOMIDE] ?
Result: > 30 µM

Query: Okay, and C[N+]1(C)CCC(OC(=O)C(O)(c2ccccc2)C2CCCC2)C1 (configuration not stated) [GLYCOPYRRONIUM BROMIDE] ?
Result: > 30 µM

Query: Okay, and COc1ccc2c3c1O[C@H]1[C@@H](O)C=C[C@H]4[C@@H](C2)N(C)CC[C@@]341 ?
Result: > 30 µM

Query: Okay, and Clc1ccc(CCCOCCCN2CCCCC2)cc1 ?
Result: > 30 µM

Query: Okay, and Cn1c(=O)c2c(ncn2CC2OCCO2)n(C)c1=O ?
Result: > 30 µM

Query: Okay, and CC(C(=O)O)c1ccc(N2Cc3ccccc3C2=O)cc1 (configuration not stated) ?
Result: > 30 µM
